Below is a list of entries, each paired with its recorded Primary assay EC50 (cAMP), GIP-R, second run value.
# Measured on: T1, glucose-dependent insulinotropic peptide (gastric inhibitory polypeptide) receptor (GIPR) (human, UniProt P48546 22-466)
# T1 sequence (looked up): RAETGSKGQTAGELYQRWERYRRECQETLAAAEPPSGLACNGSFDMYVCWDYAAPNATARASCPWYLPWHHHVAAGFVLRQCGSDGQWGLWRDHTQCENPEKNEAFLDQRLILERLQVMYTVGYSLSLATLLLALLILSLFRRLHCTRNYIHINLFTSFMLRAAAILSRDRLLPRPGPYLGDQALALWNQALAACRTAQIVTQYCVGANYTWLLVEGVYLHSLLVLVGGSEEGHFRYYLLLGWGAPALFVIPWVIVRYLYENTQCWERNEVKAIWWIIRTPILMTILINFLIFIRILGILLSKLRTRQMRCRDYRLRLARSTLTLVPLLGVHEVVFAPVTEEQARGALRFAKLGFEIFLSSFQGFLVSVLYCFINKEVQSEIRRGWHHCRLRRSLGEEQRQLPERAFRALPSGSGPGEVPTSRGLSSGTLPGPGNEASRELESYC
# Test: cell-based or functional assay
Starred links: 1 amine or outer side, 2 acyl side, 3 side chain; linkers in the order of their positions; H or OH if unused. Non-standard residues stand in square brackets, D forms with d. Groups on a side chain read outwards from the residue. Primed or numbered codes have the meaning given here. No end group written: not given here. *: point of attachment. Dodecylbenzoate = dodecylbenzoyl lipid group; γGlu = O=C(O)[C@H](CCC(=O)[*:2])N[*:1]; Stearoyl = CCCCCCCCCCCCCCCCCC(=O)*; αMeF = C[C@](N)(Cc1ccccc1)C(=O)O; αMeK = C[C@](N)(CCCCN)C(=O)O; αMeS = C[C@](N)(CO)C(=O)O; PEG2′ = not defined here; Aib = CC(C)(N)C(=O)O
Quantity name: Primary assay EC50 (cAMP), GIP-R, second run (nM)

| Binder | Value units | Measured |
| --- | --- | --- |
| H[Aib]EGS[αMeF]TSDV[αMeS]S[αMeF]LEGEAA[αMeK]E[αMeF]IA[αMeF]VVK([PEG2′-PEG2′-Stearoyl])GG-NH2 [SEQ ID NO 198] | nM | 26 |
| H[Aib]EGS[αMeF]TSDV[αMeS]S[αMeF]LEGEAA[αMeK]E[αMeF]IA[αMeF]VVK([γGlu-γGlu-γGlu-Dodecylbenzoate])GG-NH2 [SEQ ID NO 175] | nM | 26 |
| H[Aib]EGS[αMeF]TSDV[αMeS]S[αMeF]LEGEAA[αMeK]E[αMeF]IA[αMeF]VVK([γGlu-Dodecylbenzoate])GG-NH2 [SEQ ID NO 173] | nM | 27 |

// provenance: patent US20200079833A1
